Biological target: N-methyl-D-aspartate receptor (NMDAR), native in hippocampal neurons (Rattus norvegicus, UniProt P35439+Q00959+Q00960)
Construct: native heteromeric receptor in primary rat hippocampal neurons; with GluN2A / GluN2B (native mixture, mostly GluN1/2A/2B)
Sequence (Q00959 23-1464, other chains not shown): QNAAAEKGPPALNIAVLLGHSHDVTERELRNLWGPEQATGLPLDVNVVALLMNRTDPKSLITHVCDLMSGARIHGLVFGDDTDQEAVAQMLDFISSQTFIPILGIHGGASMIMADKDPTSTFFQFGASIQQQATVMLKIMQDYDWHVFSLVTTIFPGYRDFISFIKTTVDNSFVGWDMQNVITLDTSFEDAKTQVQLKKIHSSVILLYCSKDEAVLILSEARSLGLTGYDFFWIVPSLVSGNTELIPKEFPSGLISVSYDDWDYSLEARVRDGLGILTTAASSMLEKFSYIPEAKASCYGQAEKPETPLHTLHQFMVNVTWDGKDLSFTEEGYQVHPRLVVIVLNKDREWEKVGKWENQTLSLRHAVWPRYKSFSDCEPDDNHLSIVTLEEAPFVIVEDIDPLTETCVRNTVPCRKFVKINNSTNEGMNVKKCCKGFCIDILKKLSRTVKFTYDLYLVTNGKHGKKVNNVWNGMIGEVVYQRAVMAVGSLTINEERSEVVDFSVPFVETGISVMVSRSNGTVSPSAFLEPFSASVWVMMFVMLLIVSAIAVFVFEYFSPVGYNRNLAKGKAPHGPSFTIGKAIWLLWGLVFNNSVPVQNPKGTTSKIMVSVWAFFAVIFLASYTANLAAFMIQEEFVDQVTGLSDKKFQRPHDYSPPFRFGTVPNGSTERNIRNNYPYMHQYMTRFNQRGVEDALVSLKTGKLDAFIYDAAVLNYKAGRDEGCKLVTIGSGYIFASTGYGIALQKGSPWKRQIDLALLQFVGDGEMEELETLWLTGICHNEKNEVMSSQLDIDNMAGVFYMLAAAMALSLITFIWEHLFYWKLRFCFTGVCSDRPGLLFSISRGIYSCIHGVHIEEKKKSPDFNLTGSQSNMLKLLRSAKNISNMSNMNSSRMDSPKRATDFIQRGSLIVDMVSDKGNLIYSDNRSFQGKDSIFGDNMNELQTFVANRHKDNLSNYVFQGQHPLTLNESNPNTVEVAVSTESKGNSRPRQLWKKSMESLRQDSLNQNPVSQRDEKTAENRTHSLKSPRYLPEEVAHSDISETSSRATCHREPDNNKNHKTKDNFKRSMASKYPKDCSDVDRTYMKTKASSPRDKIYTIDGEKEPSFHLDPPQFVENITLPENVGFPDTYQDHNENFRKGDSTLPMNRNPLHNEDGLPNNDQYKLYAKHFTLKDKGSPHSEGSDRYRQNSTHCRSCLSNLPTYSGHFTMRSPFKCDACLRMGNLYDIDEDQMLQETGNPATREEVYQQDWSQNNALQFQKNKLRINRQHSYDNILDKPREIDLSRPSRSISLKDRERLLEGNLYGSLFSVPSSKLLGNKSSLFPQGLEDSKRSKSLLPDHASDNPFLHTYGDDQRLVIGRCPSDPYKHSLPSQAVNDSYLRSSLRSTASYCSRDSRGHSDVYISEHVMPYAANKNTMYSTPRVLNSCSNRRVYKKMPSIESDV
Sequence (Q00960 27-1482, other chains not shown): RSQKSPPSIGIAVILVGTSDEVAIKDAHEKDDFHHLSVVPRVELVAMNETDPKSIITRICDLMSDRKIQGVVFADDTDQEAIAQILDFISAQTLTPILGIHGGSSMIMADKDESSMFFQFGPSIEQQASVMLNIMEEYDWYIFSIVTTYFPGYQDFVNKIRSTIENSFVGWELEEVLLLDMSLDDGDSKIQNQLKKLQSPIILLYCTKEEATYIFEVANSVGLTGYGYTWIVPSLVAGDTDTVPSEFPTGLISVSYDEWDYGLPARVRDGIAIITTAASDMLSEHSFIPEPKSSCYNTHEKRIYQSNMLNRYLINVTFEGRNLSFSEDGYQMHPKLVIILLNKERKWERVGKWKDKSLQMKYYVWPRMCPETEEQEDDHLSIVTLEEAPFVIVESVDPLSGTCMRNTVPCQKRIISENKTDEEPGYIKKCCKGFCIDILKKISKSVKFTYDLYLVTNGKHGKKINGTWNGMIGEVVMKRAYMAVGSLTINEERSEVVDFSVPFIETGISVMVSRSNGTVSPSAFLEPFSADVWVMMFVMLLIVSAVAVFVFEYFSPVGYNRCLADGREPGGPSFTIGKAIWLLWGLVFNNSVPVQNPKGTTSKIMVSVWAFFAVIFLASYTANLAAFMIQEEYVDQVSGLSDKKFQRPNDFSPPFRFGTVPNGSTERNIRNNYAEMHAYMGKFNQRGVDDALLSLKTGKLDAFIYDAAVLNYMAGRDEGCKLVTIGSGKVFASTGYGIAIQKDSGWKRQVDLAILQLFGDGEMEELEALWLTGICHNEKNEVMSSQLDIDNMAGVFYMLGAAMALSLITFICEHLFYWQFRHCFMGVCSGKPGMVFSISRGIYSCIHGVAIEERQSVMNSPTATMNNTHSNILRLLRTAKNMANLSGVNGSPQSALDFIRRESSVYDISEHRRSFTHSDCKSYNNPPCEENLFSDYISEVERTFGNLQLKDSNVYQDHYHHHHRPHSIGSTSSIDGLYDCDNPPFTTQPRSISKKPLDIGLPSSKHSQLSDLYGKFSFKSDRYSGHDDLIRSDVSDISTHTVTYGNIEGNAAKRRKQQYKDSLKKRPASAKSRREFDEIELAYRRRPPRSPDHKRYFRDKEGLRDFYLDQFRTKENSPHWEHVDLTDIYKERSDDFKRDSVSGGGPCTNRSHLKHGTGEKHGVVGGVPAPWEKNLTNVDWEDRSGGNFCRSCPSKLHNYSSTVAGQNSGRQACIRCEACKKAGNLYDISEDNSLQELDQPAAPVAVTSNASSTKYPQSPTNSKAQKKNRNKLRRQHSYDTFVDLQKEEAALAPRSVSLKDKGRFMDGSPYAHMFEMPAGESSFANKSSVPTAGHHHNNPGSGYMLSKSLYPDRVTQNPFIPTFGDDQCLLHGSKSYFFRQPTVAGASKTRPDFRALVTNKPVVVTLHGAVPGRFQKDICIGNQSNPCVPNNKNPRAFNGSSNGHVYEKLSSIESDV
Experiment: whole-cell patch clamp of NMDA-activated currents in primary rat hippocampal neurons ([…] NMDA, […] glycine)
readout_label: pIC50
Numbers only, as −log10 of the molar value.

[ask] May I ask what pIC50 has been recorded for CC(C)[C@@H](CC[C@@H](C)[C@H]1CC[C@H]2[C@@H]3[C@H](O)C[C@H]4C[C@@H](NCCCNCCCCNCCCN)CC[C@]4(C)[C@H]3CC[C@]12C)OS(=O)(=O)O [TRO, trodusquemine] ?
[reply] 8.29
